Sourced from paper PMC6891087

assayed_system: unmodified nucleosome core particle (human | Xenopus laevis) (UniProt P04908)
protocol_summary: SPR; biotinylated NCPs immobilised (~500 RU) on a streptavidin chip, BIAcore T200; analytes 7.8 to 1,000 nM; 8°C; 25 mM Hepes, 250 mM NaCl, 1 mM DTT, 0.05% Tween-20, pH 8; steady-state 1:1 fit
quantity_measured: Kd (nM)
Output spec: scalar in nM, unitless text.

Ask | // Input: CPC localization module (Borealin-Survivin-INCENP 1-58) (from UniProt Q53HL2 1-280; O15392 1-142; Q9NQS7 1-58) (complex) . Output its Kd only.
Reply | 295

###

assayed_system: nucleosome core particle with histone H3 phosphorylated at Thr3 (human | not stated | Xenopus laevis) (UniProt P04908)
protocol_summary: SPR; biotinylated NCPs immobilised (~500 RU) on a streptavidin chip, BIAcore T200; analytes 7.8 to 1,000 nM; 8°C; 25 mM Hepes, 250 mM NaCl, 1 mM DTT, 0.05% Tween-20, pH 8; steady-state 1:1 fit
quantity_measured: pKd
Reminder that pKd means the negative base-10 logarithm of the concentration expressed in mol/L.

Ask | # return recorded pKd for entry CPC localization module (Borealin-Survivin-INCENP 1-58) (from UniProt Q53HL2 1-280; O15392 1-142; Q9NQS7 1-58) (complex)
Reply | 6.99
